biological target: mouse SMO^W535L (Mus musculus, UniProt P56726, W539L); construct: expressed in transfected cells; experiment: Mouse assay: Gli1 qPCR in MEF cells stably expressing mouse SMO W535L; assay type: cell-based; details: mSHh-treated, 24 hours, percentage Gli1 inhibition; on Mouse W535L % Inh: test concentration or dose not given here
Sequence (P56726 33-793 W539L): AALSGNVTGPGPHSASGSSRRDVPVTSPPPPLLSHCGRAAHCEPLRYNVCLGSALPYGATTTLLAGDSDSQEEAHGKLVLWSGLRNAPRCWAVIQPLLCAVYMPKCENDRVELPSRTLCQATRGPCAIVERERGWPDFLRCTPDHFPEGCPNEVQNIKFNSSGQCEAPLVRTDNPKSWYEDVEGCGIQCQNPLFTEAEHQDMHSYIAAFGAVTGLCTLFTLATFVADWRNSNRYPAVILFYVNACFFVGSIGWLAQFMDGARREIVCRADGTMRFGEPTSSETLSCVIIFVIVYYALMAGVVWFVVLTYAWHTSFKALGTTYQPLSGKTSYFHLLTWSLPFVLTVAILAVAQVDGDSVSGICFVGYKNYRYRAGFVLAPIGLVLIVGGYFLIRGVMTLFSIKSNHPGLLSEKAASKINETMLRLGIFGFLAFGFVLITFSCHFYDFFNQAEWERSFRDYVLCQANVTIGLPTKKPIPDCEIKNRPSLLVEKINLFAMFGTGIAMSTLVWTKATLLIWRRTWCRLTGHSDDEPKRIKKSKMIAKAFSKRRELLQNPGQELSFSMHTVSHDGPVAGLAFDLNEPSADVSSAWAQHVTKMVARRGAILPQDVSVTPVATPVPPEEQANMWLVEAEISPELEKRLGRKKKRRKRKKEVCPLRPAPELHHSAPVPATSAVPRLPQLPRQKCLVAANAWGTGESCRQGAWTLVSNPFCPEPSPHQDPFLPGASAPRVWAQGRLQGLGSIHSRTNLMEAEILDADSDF
measured-attribute: Mouse W535L % Inh (%)

O=C(Nc1ccc(-c2noc(Cc3ccccc3)n2)cc1)c1cccc(CN2CCS(=O)(=O)CC2)c1    82.0
O=C(Nc1ccc(-c2nc(-c3ccc(COc4ccccc4F)cc3)n[nH]2)cc1)c1cccc(CN2CCS(=O)(=O)CC2)c1    50.9
CC(C)c1n[nH]c(-c2ccc(NC(=O)c3cccc(CN4CCS(=O)(=O)CC4)c3)cc2)n1.Cl    77.1
Cl.O=C(Nc1ccc(-c2nc(C3CCC3)n[nH]2)cc1)c1cccc(CN2CCS(=O)(=O)CC2)c1    63.0
CC1(C)CN(Cc2cccc(C(=O)Nc3ccc(-c4nc(C5CC5)n[nH]4)cc3)c2)CCS1(=O)=O    62.6

* * *

target: mouse SMO^W535L (Mus musculus, UniProt P56726, W539L); construct: expressed in transfected cells; assay: Mouse assay: Gli1 qPCR in MEF cells stably expressing mouse SMO W535L; format: cell-based; conditions: mSHh-treated, 24 hours, Gli1 inhibition by qPCR, read-out: Mouse W535L pIC50 (converted)
measured-attribute: IC50 (nM)

Check out these entries, answers already filled in.
O=C(Nc1ccc(-c2nc(CC3CC3)n[nH]2)cc1)c1cccc(CN2CCS(=O)(=O)CC2)c1 [Example 3-7]    200
O=C(Nc1ccc(-c2nc(Cc3ccccc3F)n[nH]2)cc1)c1cccc(CN2CCS(=O)(=O)CC2)c1 [Example 3-19]    39.8
O=C(Nc1ccc(-c2noc(Cc3ccccc3)n2)cc1)c1cccc(CN2CCS(=O)(=O)CC2)c1 [Example 4-15]    31.6

1. O=C(Nc1ccc(-c2nc(C3CC3)n[nH]2)cc1)c1ccc(F)c(CN2CCS(=O)(=O)CC2)c1 [Example 2-3]
2. O=C(Nc1ccc(-c2nc(C3CC3)n[nH]2)cc1)c1cc(F)cc(CN2CCS(=O)(=O)CC2)c1 [Example 2-2]
3. O=C(Nc1ccc(-c2cc(C3CC3)n[nH]2)cc1)c1cccc(CN2CCS(=O)(=O)CC2)c1 [Example 4-19]
4. CN(C)c1nnc(-c2ccc(NC(=O)c3cccc(CN4CCS(=O)(=O)CC4)c3)cc2)o1 [Example 4-9]
[ask] # ascending order, key=IC50 # list labels per requested ordering
[reply] 3, 1, 2, 4

* * *

target: mouse SMO^D473H (Mus musculus, UniProt P56726, D477H); construct: expressed in transfected cells; test: Mouse assay: Gli1 qPCR in MEF cells stably expressing mouse SMO D473H; type: cell-based; settings: mSHh-treated, 24 hours, Gli1 inhibition by qPCR, read-out: Mouse D473H pIC50 (converted)
Sequence (P56726 33-793 D477H): as the sequence (P56726 33-793 W539L) above, with D445H, L507W counted along it
measured-attribute: IC50 (nM)

Cc1c(-c2ccc(NC(=O)c3cccc(CN4CCS(=O)(=O)CC4)c3)cc2)nn(C)c1C1CC1    5.01
O=C(Nc1ccc(-c2nc(C3CC3)n[nH]2)cc1)c1cc(CN2CCS(=O)(=O)CC2)ccc1F    200

a. O=C(Nc1ccc(-c2nc(C3CC3)n[nH]2)cc1)c1ccc(F)c(CN2CCS(=O)(=O)CC2)c1
b. Cc1c(-c2ccc(NC(=O)c3ccc(Cl)c(CN4CCS(=O)(=O)CC4)c3)cc2)nn(C)c1C1CC1
c. O=C(Nc1ccc(-c2noc(Cc3ccc(Cl)cc3)n2)cc1)c1cccc(CN2CCS(=O)(=O)CC2)c1
d. COc1ccc(Cc2n[nH]c(-c3ccc(NC(=O)c4cccc(CN5CCS(=O)(=O)CC5)c4)cc3)n2)cn1
e. Cc1ccc(Cc2n[nH]c(-c3ccc(NC(=O)c4cccc(CN5CCS(=O)(=O)CC5)c4)cc3)n2)cc1C
[ask] # rank_down: sort by IC50, max first Give me the labels in the order the question wants.
[reply] d, a, e, c, b
(d: 631 nM, a: 158 nM, e: 100 nM, c: 15.8 nM, b: 6.31 nM)

* * *

target: mouse SMO^W535L (Mus musculus, UniProt P56726, W539L); construct: expressed in transfected cells; assay: Mouse assay: Gli1 qPCR in MEF cells stably expressing mouse SMO W535L; type: cell-based; details: mSHh-treated, 24 hours, Gli1 inhibition by qPCR, read-out: Mouse W535L pIC50 (converted)
measured-attribute: IC50 (nM)

Cc1oc(-c2ccc(NC(=O)c3cccc(CN4CCS(=O)(=O)CC4)c3)cc2)nc1C1CC1    15.8
O=C(Nc1ccc(-c2cnc(C3CC3)o2)cc1)c1cccc(CN2CCS(=O)(=O)CC2)c1    158
Cn1nc(-c2ccc(NC(=O)c3cccc(CN4CCS(=O)(=O)CC4)c3)cn2)cc1C1CC1    251
CC(C)c1n[nH]c(-c2ccc(NC(=O)c3cccc(CN4CCS(=O)(=O)CC4)c3)cc2)n1.Cl    200
O=C(Nc1ccc(-c2nc(C3CC3)n[nH]2)cc1)c1cccc(CN2CCSCC2)c1    251
O=C(Nc1ccc(-c2nc(C3CCCCC3)n[nH]2)cc1)c1cccc(CN2CCS(=O)(=O)CC2)c1    79.4
Cl.Cn1nc(-c2ccc(NC(=O)c3cccc(CN4CCS(=O)(=O)CC4)c3)cc2)nc1C1CC1    158
CC1CN(Cc2cccc(C(=O)Nc3ccc(-c4nc(C5CC5)n[nH]4)cc3)c2)CCS1(=O)=O (stereo not drawn)    200

I. CC(C)(C)c1n[nH]c(-c2ccc(NC(=O)c3cccc(CN4CCS(=O)(=O)CC4)c3)cc2)n1
II. O=C(Nc1ccc(-c2nc(C3CC3)n[nH]2)cc1)c1cccc(CN2CCS(=O)(=O)CC2)c1
III. COc1cccc(Cc2n[nH]c(-c3ccc(NC(=O)c4cccc(CN5CCS(=O)(=O)CC5)c4)cc3)n2)c1
[ask] In this exercise, place the 3 compounds in ascending sequence of their recorded IC50. The response must list the labels following the requested ordering.
[reply] III, I, II
(III: 31.6 nM, I: 100 nM, II: 158 nM)

* * *

target: human SMO D473H (Homo sapiens, UniProt Q99835, D473H); construct: expressed in transfected cells; host or cells: SMO knock-out mouse embryonic fibroblasts (MEF SMO-/-), BacMam transduction; test: Human assay: Gli1 qPCR in MEF SMO-/- cells BacMam-transduced with hSMO D473H variant; assay type: cell-based; details: mSHh-treated, 24 hours, Gli1 inhibition by qPCR, read-out: Human D473H pIC50 (converted)
Sequence (Q99835 28-787 D473H): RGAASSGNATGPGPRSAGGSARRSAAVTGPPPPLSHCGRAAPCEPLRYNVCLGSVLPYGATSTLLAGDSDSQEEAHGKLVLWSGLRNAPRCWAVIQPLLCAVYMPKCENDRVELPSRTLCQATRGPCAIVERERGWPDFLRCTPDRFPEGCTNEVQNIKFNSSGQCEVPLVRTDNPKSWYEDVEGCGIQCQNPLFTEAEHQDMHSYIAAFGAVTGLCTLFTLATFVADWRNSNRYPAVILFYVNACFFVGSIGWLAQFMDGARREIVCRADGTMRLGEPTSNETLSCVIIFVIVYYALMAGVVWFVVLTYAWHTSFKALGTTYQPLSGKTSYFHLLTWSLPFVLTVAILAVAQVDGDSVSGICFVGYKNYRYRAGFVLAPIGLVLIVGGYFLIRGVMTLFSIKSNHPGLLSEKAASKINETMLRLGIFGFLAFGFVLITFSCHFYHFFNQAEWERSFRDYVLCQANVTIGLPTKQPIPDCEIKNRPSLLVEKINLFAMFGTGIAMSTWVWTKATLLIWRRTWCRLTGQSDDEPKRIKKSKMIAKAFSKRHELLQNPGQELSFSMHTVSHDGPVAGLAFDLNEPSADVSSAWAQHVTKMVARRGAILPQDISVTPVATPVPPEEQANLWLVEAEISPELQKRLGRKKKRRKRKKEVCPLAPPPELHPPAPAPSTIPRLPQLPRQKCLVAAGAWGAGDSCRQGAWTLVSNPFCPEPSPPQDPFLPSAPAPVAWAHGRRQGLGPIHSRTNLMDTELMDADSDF
measured-attribute: IC50 (nM)

O=C(Nc1ccc(-c2nc(C3CCCC3)n[nH]2)cc1)c1cccc(CN2CCS(=O)(=O)CC2)c1    251

1. CC1CN(Cc2cccc(C(=O)Nc3ccc(-c4nc(C5CC5)n[nH]4)cc3)c2)CCS1(=O)=O (stereo not shown)
2. O=C(Nc1ccc(-c2nc(C3CC3)n[nH]2)cc1)c1cc(Cl)cc(CN2CCS(=O)(=O)CC2)c1
3. Cc1oc(-c2ccc(NC(=O)c3cccc(CN4CCS(=O)(=O)CC4)c3)cc2)nc1C1CC1
[ask] List the 3 entries from lowest IC50 to highest IC50 value. Please respond with the labels ordered as the question requires.
[reply] 3, 1, 2
(3: 31.6 nM, 1: 200 nM, 2: 631 nM)

* * *

target: mouse SMO^D473H (Mus musculus, UniProt P56726, D477H); construct: expressed in transfected cells; experiment: Mouse assay: Gli1 qPCR in MEF cells stably expressing mouse SMO D473H; assay type: cell-based; conditions: mSHh-treated, 24 hours, Gli1 inhibition by qPCR, read-out: Mouse D473H pIC50 (converted)
measured-attribute: IC50 (nM)

Cc1oc(-c2ccc(NC(=O)c3ccc(F)c(CN4CCS(=O)(=O)CC4)c3)cc2)nc1C1CC1    2
O=C(Nc1ccc(-c2nc(Cc3ccc(Br)cc3)n[nH]2)cc1)c1cccc(CN2CCS(=O)(=O)CC2)c1    50.1
O=C(Nc1ccc(-c2cc(C3CC3)n[nH]2)cc1)c1ccc(Cl)c(CN2CCS(=O)(=O)CC2)c1    31.6
Cn1nc(-c2ccc(NC(=O)c3ccc(Cl)c(CN4CCS(=O)(=O)CC4)c3)cc2)cc1C1CC1    7.94
Cc1c(-c2ccc(NC(=O)c3ccc(Cl)c(CN4CCS(=O)(=O)CC4)c3)cc2)n[nH]c1C1CC1    5.01
CC1(C)CN(Cc2cccc(C(=O)Nc3ccc(-c4nc(C5CC5)n[nH]4)cc3)c2)CCS1(=O)=O    63.1
O=C(Nc1ccc(-c2nc(Cc3ccc(Cl)cc3)n[nH]2)cc1)c1cccc(CN2CCS(=O)(=O)CC2)c1    316
Cn1nc(-c2ccc(NC(=O)c3cccc(CN4CCS(=O)(=O)CC4)c3)nc2)cc1C1CC1    100
O=C(Nc1ccc(-c2nc(Cc3ccc(F)cc3)n[nH]2)cc1)c1cccc(CN2CCS(=O)(=O)CC2)c1    794
O=C(Nc1ccc(-c2nc(Cc3ccc4c(c3)OCCO4)n[nH]2)cc1)c1cccc(CN2CCS(=O)(=O)CC2)c1    794

I. O=C(Nc1ccc(-c2nc(-c3ccc(C(F)(F)F)s3)n[nH]2)cc1)c1cccc(CN2CCS(=O)(=O)CC2)c1
II. O=C(Nc1ccc(-c2nc(Cc3ccccc3)n[nH]2)cc1)c1cccc(CN2CCS(=O)(=O)CC2)c1
III. O=C(Nc1ccc(-c2nc(Cc3cccc(F)c3)n[nH]2)cc1)c1cccc(CN2CCS(=O)(=O)CC2)c1
IV. O=C(Nc1ccc(-c2cc(Cc3ccccc3)n[nH]2)cc1)c1cccc(CN2CCS(=O)(=O)CC2)c1
[ask] // ascending sort on recorded IC50 Hello, could you send the labels back in the order asked? Thank you.
[reply] IV, II, III, I

src = patent US20250136559A1
